# PROTOCOL SUMMARY: chemical genetic growth profiling, strain panel (AID 1159580);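 note: tested at 20 µM; growth read once vehicle control cultures reached saturation at 30 °C; 1 = growth at the plate median or of vehicle wells; lower values mean less growth of the strain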
# EXPERIMENTAL PARAMETERS: S. cerevisiae deletion strains, growth OD, locus YLR357W, strain rsc2, stronger effect = lower value
The whole screen tested about 5,500 compounds, of which about 2,000 (36%) were called active. Not shown: some 18% with an inconclusive outcome. Some of the results follow.
READOUT NAME: normalized growth

compound=CCN(CC)CCOC(=O)c1ccc(N)cc1 data_value=0.955
compound=CO/N=C(\C(=O)N[C@@H]1C(=O)N2C(C(=O)O)=C(COC(C)=O)CS[C@H]12)c1csc(N)n1 data_value=1.03
compound=COc1ccc2c(c1)O[C@H]1c3ccc(OC)cc3OC[C@@H]21 data_value=0.99
compound=O=C1NC(=O)C(=O)C(=O)N1 data_value=0.952
compound="CO[C@@]1(NC(=O)CSCC#N)C(=O)N2C(C(=O)O)=C(CSc3nnnn3C)CSC21 (stereo partly drawn)" data_value=0.915
compound=CCCCOC(=O)c1ccc(N)cc1 data_value=0.942
compound=Cc1ccc(C)c(OCCCC(C)(C)C(=O)O)c1 data_value=1.1
compound=COC(=O)C[C@H]1C(C)(C)C(=O)[C@@H]2CC3=C(CC[C@]4(C)C3=CC(=O)O[C@H]4c3ccoc3)[C@@]1(C)C2=O data_value=0.963
compound="CO/N=C(\\C(=O)NC1C(=O)N2C(C(=O)O)=C(COC(N)=O)CSC12)c1ccco1 (stereo not drawn)" data_value=0.963
compound=CCCCNc1ccc(C(=O)OCCN(C)C)cc1 data_value=1.13
compound=O=c1[nH]oc2c1CCNC2 data_value=0.957
compound=CCCCOC(=O)c1ccccc1C(=O)OCCCC data_value=1.02
compound=OC(Cn1cncn1)(Cn1cncn1)c1ccc(F)cc1F data_value=1.02

----------
// normalized growth lookup, one value per entry
# PROTOCOL SUMMARY: chemical genetic growth profiling, strain panel (AID 1159580);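 note: tested at 20 µM; growth read once vehicle control cultures reached saturation at 30 °C; 1 = growth at the plate median or of vehicle wells; lower values mean less growth of the strain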
# EXPERIMENTAL PARAMETERS: S. cerevisiae deletion strains, growth OD, locus YML120C, strain ndi1, stronger effect = lower value
Hit rate of the full screen: of about 5,500 compounds, about 2,000 (36%) were called active. Roughly 18% stayed inconclusive and do not appear here. The list shows a part of the results.
READOUT NAME: normalized growth

molecule=CCCCN(CCCC)CCCOC(=O)c1ccc(N)cc1 data_value=0.988
molecule=CCCCOC(=O)c1ccccc1C(=O)OCCCC data_value=0.983
molecule=CCCCCCOc1ccccc1C(N)=O data_value=0.857
molecule=Cc1cccc(Nc2ccccc2C(=O)O)c1C data_value=0.922
molecule="CC(C)NCC(O)c1cc(O)cc(O)c1 (configuration not stated)" data_value=0.965
molecule=Cc1ccc(Cl)c(Nc2ccccc2C(=O)O)c1Cl data_value=0.795
molecule=CCN(CC)CCOC(=O)c1ccc(N)cc1 data_value=0.989

----------
# PROTOCOL SUMMARY: chemical genetic growth profiling, strain panel (AID 1159580);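 note: tested at 20 µM; growth read once vehicle control cultures reached saturation at 30 °C; 1 = growth at the plate median or of vehicle wells; lower values mean less growth of the strain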
# EXPERIMENTAL PARAMETERS: S. cerevisiae deletion strains, growth OD, locus YNL067W, strain RPL9B, stronger effect = lower value
In all, about 5,500 compounds went through this assay and about 2,000 (36%) were called active. Roughly 18% stayed inconclusive and do not appear here. Some of the results follow.
READOUT NAME: normalized growth

compound=CCN(CC)CCOC(=O)c1ccc(N)cc1 data_value=1.01
compound="CC(C)NCC(O)c1cc(O)cc(O)c1 (stereo not given)" data_value=0.995
compound="Oc1ccc2c(c1)OCC1c3cc4c(cc3OC21)OCO4 (stereo not given)" data_value=1.01
compound=CCCCN(CCCC)CCCOC(=O)c1ccc(N)cc1 data_value=0.963
compound=CCOC(=O)[C@H](CCc1ccccc1)N[C@@H](C)C(=O)N1[C@H](C(=O)O)C[C@@H]2CCC[C@@H]21 data_value=1.01
compound=CC(=O)OCC[C@H](C)CCC=C(C)C data_value=1.02
compound=COc1ccc([C@H]2Oc3cc(OC)cc(OC)c3C[C@H]2O)cc1 data_value=1.02
compound="COC(=O)[C@@H]1OC(=O)[C@H]2O[C@@]23[C@@]1(C)CCC1[C@@]2(C)CCC(=O)C(C)(C)C2C[C@@H](OC(C)=O)[C@]13C (stereo not given in full)" data_value=1.04
compound=CC(C)(C)CC(C)(C)c1ccc(O)c(Cc2ccc(Cl)cc2Cl)c1 data_value=1.01
compound="COc1ccc2c(c1O)OCC1c3cc4c(cc3OC21)OCO4 (stereo not given)" data_value=0.929
